Every entry's value here was drawn from patent US9682141B2.

pIC50 overview
# target system: UniProt:P48736
# Sequence (P48736 whole entry): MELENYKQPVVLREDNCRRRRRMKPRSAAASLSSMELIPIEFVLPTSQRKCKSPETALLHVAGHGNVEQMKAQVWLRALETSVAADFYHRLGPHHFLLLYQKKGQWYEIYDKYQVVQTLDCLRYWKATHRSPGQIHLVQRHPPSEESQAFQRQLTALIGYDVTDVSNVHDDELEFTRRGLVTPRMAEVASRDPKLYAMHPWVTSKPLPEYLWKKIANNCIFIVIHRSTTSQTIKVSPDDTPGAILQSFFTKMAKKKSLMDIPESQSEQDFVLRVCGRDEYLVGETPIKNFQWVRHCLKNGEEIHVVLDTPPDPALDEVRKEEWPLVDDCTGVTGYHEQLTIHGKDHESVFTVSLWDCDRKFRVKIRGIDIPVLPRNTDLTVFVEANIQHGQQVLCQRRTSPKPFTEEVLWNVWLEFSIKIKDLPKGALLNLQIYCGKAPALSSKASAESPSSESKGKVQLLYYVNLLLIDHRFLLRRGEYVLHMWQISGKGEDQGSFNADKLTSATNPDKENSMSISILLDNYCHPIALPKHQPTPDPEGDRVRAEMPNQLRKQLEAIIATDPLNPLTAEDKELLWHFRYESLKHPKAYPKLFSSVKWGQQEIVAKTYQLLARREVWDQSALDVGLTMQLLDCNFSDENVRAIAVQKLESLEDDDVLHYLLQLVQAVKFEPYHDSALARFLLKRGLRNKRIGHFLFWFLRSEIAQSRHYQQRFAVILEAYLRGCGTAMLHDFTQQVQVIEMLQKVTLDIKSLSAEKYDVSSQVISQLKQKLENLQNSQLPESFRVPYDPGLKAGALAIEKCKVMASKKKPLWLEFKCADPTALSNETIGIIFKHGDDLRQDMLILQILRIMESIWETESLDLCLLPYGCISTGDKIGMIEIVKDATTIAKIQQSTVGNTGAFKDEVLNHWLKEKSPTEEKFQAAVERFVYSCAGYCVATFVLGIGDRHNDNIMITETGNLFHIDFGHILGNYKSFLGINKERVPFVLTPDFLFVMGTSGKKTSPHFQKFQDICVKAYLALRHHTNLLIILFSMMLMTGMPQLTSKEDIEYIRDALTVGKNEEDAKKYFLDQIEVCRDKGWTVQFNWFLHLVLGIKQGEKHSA
# measurement description: PI 3-Kinase (human) HTRF assay, p110γ
# Format: biochemical
# measurement parameters: read-out: PI3K γ IC50
pIC50: −log10 of the molar value.
reported property: pIC50

- compound: "CC1CN(c2cnc3ccc(-c4ccc5oc(N)nc5c4)cc3n2)CC(C)N1 (centres unmarked)"
  reported property: "pIC50"
  obs value: "> 6.00"
- compound: "CN1CCC(NC(=O)c2cnc3ccc(-c4ccc5oc(N)nc5c4)cn23)CC1"
  reported property: "pIC50"
  obs value: "> 6.00"
- compound: "Nc1nc2cc(-c3ccc4ncc(N5CCS(=O)(=O)CC5)nc4c3)ccc2o1"
  reported property: "pIC50"
  obs value: "> 7.00"
- compound: "Nc1nc2cc(-c3ccc4ncnc(NC5CCN(C(=O)C6CC6)CC5)c4c3)ccc2o1"
  reported property: "pIC50"
  obs value: "> 7.00"
- compound: "CN1CCN(C(=O)c2cnc3ccc(-c4ccc5nc(N)oc5c4)cn23)CC1"
  reported property: "pIC50"
  obs value: "< 5.00"
- compound: "CC(N)C(=O)N1CCN(c2cnc3ccc(-c4ccc5oc(N)nc5c4)cc3n2)CC1 (centres unmarked)"
  reported property: "pIC50"
  obs value: "> 5.00"
- compound: "CC(C)(C)N1CCN(C(=O)c2cnc3ccc(-c4ccc5oc(N)nc5c4)cn23)CC1"
  reported property: "pIC50"
  obs value: "> 5.00"
- compound: "Nc1nc2cc(-c3ccc4ncc(N5CCC(N)CC5)nc4c3)ccc2o1"
  reported property: "pIC50"
  obs value: "< 5.00"
- compound: "Nc1nc2cc(-c3ccc4nccc(-c5ccncc5)c4c3)ccc2s1"
  reported property: "pIC50"
  obs value: "> 7.00"
- compound: "CN(C)CC(=O)N1CCN(c2cnc3ccc(-c4ccc5oc(N)nc5c4)cc3n2)CC1 [drawing 329]"
  reported property: "pIC50"
  obs value: "> 6.00"
- compound: "CC1CN(C(=O)c2cnc3ccc(-c4ccc5oc(N)nc5c4)cn23)CC(C)N1 (centres unmarked)"
  reported property: "pIC50"
  obs value: "< 5.00"
- compound: "Nc1nc2cc(-c3ccc4ncc(N5CC(C(=O)N6CCOCC6)C5)nc4c3)ccc2o1 [drawing 359]"
  reported property: "pIC50"
  obs value: "> 6.00"
- compound: "CN1CCC(Oc2ncnc3ccc(-c4ccc5oc(N)nc5c4)cc23)CC1"
  reported property: "pIC50"
  obs value: "> 7.00"
- compound: "CN1CCN(C(=O)c2cnc3ccc(-c4ccc5nc(N)sc5c4)cn23)CC1"
  reported property: "pIC50"
  obs value: "< 5.00"
- compound: "CC1(C)CN(C2CN(c3cnc4ccc(-c5ccc6oc(N)nc6c5)nc4c3)C2)CCN1"
  reported property: "pIC50"
  obs value: "> 6.00"
- compound: "Nc1nc2cc(-c3ccc4ncc(N5CC(N6CC7CCC(C6)O7)C5)nc4n3)ccc2o1"
  reported property: "pIC50"
  obs value: "> 5.00"
- compound: "CS(=O)(=O)CCN1CCC(Nc2cnc3ccc(-c4ccc5oc(N)nc5c4)cc3n2)CC1"
  reported property: "pIC50"
  obs value: "> 7.00"
- compound: "C[C@H](N)C(=O)N1CCN(c2cnc3ccc(-c4ccc5oc(N)nc5c4)nc3n2)CC1"
  reported property: "pIC50"
  obs value: "> 7.00"
- compound: "Nc1nc2cc(-c3ccc4ncc(N5CCOCC5)nc4c3)ccc2s1"
  reported property: "pIC50"
  obs value: "> 6.00"
- compound: "Cc1ncccc1-c1cnc2ccc(-c3ccc4oc(N)nc4c3)cc2n1"
  reported property: "pIC50"
  obs value: "< 5.00"
- compound: "Nc1nc2cc(-c3ccc4ncc(N5CCCCC5)nc4c3)ccc2o1"
  reported property: "pIC50"
  obs value: "> 5.00"
- compound: "Nc1nc2cc(-c3ccc4ncc(-c5ccc(N6CCOCC6)nc5)n4c3)ccc2o1"
  reported property: "pIC50"
  obs value: "> 6.00"
- compound: "Nc1nc2cc(-c3ccc4nccc(CCN5CCOCC5)c4c3)ccc2o1"
  reported property: "pIC50"
  obs value: "> 7.00"
- compound: "Nc1ccc2cc(-c3ccc4nccc(-c5ccncc5)c4c3)ccc2n1"
  reported property: "pIC50"
  obs value: "> 6.00"
- compound: "Nc1nc2cc(-c3ccc4ncn(C5CCOCC5)c(=O)c4c3)ccc2o1"
  reported property: "pIC50"
  obs value: "< 5.00"
- compound: "Nc1nc2cc(-c3ccc4ncnc(NC5CCOCC5)c4c3)ccc2o1"
  reported property: "pIC50"
  obs value: "> 7.00"
